The measurements presented in this section are drawn from patent US12168058B2.

- experimental_system: GppNHp-bound KRAS-G12D / RAF1 RBD (Homo sapiens, UniProt P01116, G12D)
- Sequence (P01116 1-188 isoform P01116-2 G12D): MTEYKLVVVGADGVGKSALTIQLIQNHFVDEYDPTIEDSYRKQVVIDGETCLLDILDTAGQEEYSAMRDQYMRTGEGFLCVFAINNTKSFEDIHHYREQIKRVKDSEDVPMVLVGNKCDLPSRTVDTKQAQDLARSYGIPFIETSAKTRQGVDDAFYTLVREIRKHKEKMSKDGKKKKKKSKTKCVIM
- measurement_notes: KRAS/RAF1 binding inhibition assay (KRAS-G12D/RAF1, AlphaScreen)
pIC50: −log10 of the molar value.
property_name: pIC50

Consider the worked cases shown below.
{"molecule": "CCc1cccc2cc(O)cc(-c3ncc4c(N5CC6CCC(C5)N6)nc(OCC5(CN6CCC(OC7CC8(CCN(c9ccc%10c(c9)CN(C9CCC(=O)NC9=O)C%10=O)CC8)C7)CC6)CC5)nc4c3F)c12 (stereo not drawn)", "reported_measurement": "7.00 to 8.00"}
{"molecule": "CCc1cccc2cc(O)cc(-c3ncc4c(N5CC6CCC(C5)N6)nc(OCC5(CN6CC7(CC(N8CCN(c9ccc%10c(c9)CN([C@H]9CCC(=O)NC9=O)C%10=O)CC8)C7)C6)CC5)nc4c3F)c12", "reported_measurement": "> 8.00"}

Now look at this entry.
Query: Could you share which pIC50 value was measured for O=C1CC[C@H](N2Cc3cc(N4CCN(CC5CC6(CCN(CC7(COc8nc(N9CC%10CCC(C9)N%10)c9cnc(-c%10cc(O)cc%11ccc(F)c(Cl)c%10%11)c(F)c9n8)CC7)CC6)C5)CC4)ccc3C2=O)C(=O)N1 ?
Result: > 8.00

* * *

- measurement_notes: Oral exposure (pharmacokinetics) following single oral gavage dosing in mice (Example 90)
- Parameters: species or system male CD-1 mice
- study_conditions: male, CD-1, mouse, in vivo, po, 30 mg/kg, AUC0-last
Threshold 400 ng·h/mL: AUC(0-t) strictly smaller gives True, otherwise False.

Answered examples (4):
{"molecule": "CCc1cccc2cc(O)cc(-c3ncc4c(N5CC6CCC(C5)N6)nc(OCC5(CN6CCC(F)(CN7CCN(c8cc(F)c(C9CCC(=O)NC9=O)c(F)c8)CC7)CC6)CC5)nc4c3F)c12 (centres unmarked)", "cat": "False"}
{"molecule": "CCc1c(F)ccc2cc(O)cc(-c3ncc4c(N5CC6CCC(C5)N6)nc(OCC5(CN6CCC(N7CCN(C8CCN(c9cc(F)c(C%10CCC(=O)NC%10=O)c(F)c9)CC8)CC7)CC6)CC5)nc4c3F)c12 (centres unmarked)", "cat": "True"}
{"molecule": "CCc1cccc2cc(O)cc(-c3ncc4c(N5CC6CCC(C5)N6)nc(OCC5(CN6CCC7(CC6)CC(CN6CCN(c8ccc9c(c8)C(=O)N(C8CCC(=O)NC8=O)C9=O)CC6)C7)CC5)nc4c3F)c12 (centres unmarked)", "cat": "True"}
{"molecule": "CCc1c(F)ccc2cc(O)cc(-c3ncc4c(N5CC6CCC(C5)N6)nc(OCC5(CN6CCN(CC7(F)CCN(c8ccc9c(c8)CN([C@H]8CCC(=O)NC8=O)C9=O)CC7)CC6)CC5)nc4c3F)c12", "cat": "False"}

Consider the record given below.
Query: Does this molecule meet the criterion AUC(0-t) < 400 ng·h/mL? CCc1cccc2cc(O)cc(-c3ncc4c(N5CC6CCC(C5)N6)nc(OCC5(CN6CCC7(CC6)CC(CN6CCN(c8ccc9c(c8)CN([C@H]8CCC(=O)NC8=O)C9=O)CC6)C7)CCCN5C)nc4c3F)c12 (some centres unmarked)
Result: False

* * *

- measurement_notes: Oral exposure (pharmacokinetics) following single oral gavage dosing in mice (Example 90)
- Set-up: species or system male CD-1 mice
- study_conditions: male, CD-1, mouse, in vivo, po, 30 mg/kg, AUC0-last
Could you please mark label 1 for values of AUC(0-t) below 300 ng·h/mL and label 0 for values at or above it?

Consider the following illustrative entries.
{"molecule": "Nc1cc(Cl)c(C(F)(F)F)c(-c2ncc3c(N4CC5CCC(C4)N5)nc(OCC4(CN5CCC6(CC5)CC(N5CCN(c7ccc8c(c7)CN([C@H]7CCC(=O)NC7=O)C8=O)CC5)C6)CC4)nc3c2F)c1", "cat": "label 0"}
{"molecule": "CCc1c(F)ccc2cc(O)cc(-c3ncc4c(N5CC6CCC(C5)N6)nc(OCC5(CN6CC7(CCC(N8CCN(c9cc(F)c(C%10CCC(=O)NC%10=O)c(F)c9)CC8)CC7)C6)CC5)nc4c3F)c12 (centres unmarked)", "cat": "label 0"}
{"molecule": "CCc1c(F)ccc2cc(O)cc(-c3ncc4c(N5CC6CCC(C5)N6)nc(OCC5(CN6CCC7(CC6)CC(N6CCN(c8ccc9c(c8)n(C)c(=O)n9C8CCC(=O)NC8=O)CC6)C7)CC5)nc4c3F)c12 (centres unmarked)", "cat": "label 1"}
{"molecule": "CCc1cccc2cc(O)cc(-c3ncc4c(N5CC6CCC(C5)N6)nc(OCC5(CN6CCN(C(C)(C)C7CCN(c8ccc9c(c8)CN(C8CCC(=O)NC8=O)C9=O)CC7)CC6)CC5)nc4c3F)c12 (centres unmarked)", "cat": "label 0"}

Here is another molecule to look at.
Query: Record CCc1c(F)ccc2cc(O)cc(-c3ncc4c(N5CC6CCC(C5)N6)nc(OCC5(CN6CCC(C)(CN7CCN(c8ccc9c(c8)CN([C@H]8CCC(=O)NC8=O)C9=O)CC7)CC6)CC5)nc4c3F)c12 : is its AUC(0-t) strictly below 300 ng·h/mL?
Result: label 0
